Molecular target: M. tuberculosis CoaBC (Mycobacterium tuberculosis)
Sequence (P9WNZ1 whole entry): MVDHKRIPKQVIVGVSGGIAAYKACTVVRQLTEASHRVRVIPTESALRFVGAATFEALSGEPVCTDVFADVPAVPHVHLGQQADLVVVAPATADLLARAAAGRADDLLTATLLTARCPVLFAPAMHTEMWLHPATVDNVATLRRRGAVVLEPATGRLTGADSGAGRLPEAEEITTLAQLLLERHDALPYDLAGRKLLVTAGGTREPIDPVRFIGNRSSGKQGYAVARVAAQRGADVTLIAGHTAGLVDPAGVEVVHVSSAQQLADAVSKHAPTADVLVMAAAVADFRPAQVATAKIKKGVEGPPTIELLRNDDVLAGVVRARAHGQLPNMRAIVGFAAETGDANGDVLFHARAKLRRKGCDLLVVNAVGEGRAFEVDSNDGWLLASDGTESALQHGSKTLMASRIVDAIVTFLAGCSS
Format: binding
Exercise: for every item that follows, state its recorded Thermal shift relative to CoaBC, Substrate.
Write it as a number; the unit °C goes unstated.

State the recorded Thermal shift relative to CoaBC, Substrate for this entry: Nc1ccn([C@@H]2O[C@H](COP(=O)(O)OP(=O)(O)OP(=O)(O)O)[C@@H](O)[C@H]2O)c(=O)n1 [CTP, cytidine-5′-triphosphate]
5.5

Would you mind doing N[C@@H](CS)C(=O)O as well?
0.5

Also CC(C)(COP(=O)(O)O)[C@@H](O)C(=O)NCCC(=O)O [PPA, 4′-phosphopantothenate] ?
3.5

Note, next up: Nc1ccn([C@@H]2O[C@H](COP(=O)(O)O)[C@@H](O)[C@H]2O)c(=O)n1 [CMP, cytidine-5′-monophosphate]
1.5
